Data provenance: paper PMC7307922

# Protocol: in vivo
# Condition details: male, BALB/c, mouse, iv, 5 mg/kg
Measured attribute: Vd at 24 h (L/kg)
// note: answer is a bare numeric in L/kg

Asked: Fill in the blank: the reported Vd at 24 h of CC1=C(C(=O)Nc2ccccc2C)C(c2ccco2)C2=C(CCCC2=O)N1 (stereo not shown) [Compound 1, reference compound] is ____.
Given back: 0.759

Asked: Fill in the blank: the reported Vd at 24 h of CCCC1C(C(=O)Nc2cc(Cl)ccc2Cl)=C(C)NC2=C1C(=O)CCC2 (stereo not shown) [Compound 57] is ____.
Given back: 1.15

Asked: Fill in the blank: the reported Vd at 24 h of CC1=C(C(=O)Nc2cc(Cl)ccc2Cl)C(c2ccco2)C2=C(CCCC2=O)N1 (stereo not shown) [Compound 16, reference compound] is ____.
Given back: 0.629

Asked: Fill in the blank: the reported Vd at 24 h of CC1=C(C(=O)Nc2cc(Cl)ccc2Cl)C(C2CCCC2)C2=C(CCCC2=O)N1 (stereo not shown) [Compound 63] is ____.
Given back: 1.11
